Molecular target: EGFR (Homo sapiens, UniProt P00533)
Construct: A431 […] cell lysate is stored at −80° C; host or cells: A431 cell lysate
Sequence (P00533 25-1210): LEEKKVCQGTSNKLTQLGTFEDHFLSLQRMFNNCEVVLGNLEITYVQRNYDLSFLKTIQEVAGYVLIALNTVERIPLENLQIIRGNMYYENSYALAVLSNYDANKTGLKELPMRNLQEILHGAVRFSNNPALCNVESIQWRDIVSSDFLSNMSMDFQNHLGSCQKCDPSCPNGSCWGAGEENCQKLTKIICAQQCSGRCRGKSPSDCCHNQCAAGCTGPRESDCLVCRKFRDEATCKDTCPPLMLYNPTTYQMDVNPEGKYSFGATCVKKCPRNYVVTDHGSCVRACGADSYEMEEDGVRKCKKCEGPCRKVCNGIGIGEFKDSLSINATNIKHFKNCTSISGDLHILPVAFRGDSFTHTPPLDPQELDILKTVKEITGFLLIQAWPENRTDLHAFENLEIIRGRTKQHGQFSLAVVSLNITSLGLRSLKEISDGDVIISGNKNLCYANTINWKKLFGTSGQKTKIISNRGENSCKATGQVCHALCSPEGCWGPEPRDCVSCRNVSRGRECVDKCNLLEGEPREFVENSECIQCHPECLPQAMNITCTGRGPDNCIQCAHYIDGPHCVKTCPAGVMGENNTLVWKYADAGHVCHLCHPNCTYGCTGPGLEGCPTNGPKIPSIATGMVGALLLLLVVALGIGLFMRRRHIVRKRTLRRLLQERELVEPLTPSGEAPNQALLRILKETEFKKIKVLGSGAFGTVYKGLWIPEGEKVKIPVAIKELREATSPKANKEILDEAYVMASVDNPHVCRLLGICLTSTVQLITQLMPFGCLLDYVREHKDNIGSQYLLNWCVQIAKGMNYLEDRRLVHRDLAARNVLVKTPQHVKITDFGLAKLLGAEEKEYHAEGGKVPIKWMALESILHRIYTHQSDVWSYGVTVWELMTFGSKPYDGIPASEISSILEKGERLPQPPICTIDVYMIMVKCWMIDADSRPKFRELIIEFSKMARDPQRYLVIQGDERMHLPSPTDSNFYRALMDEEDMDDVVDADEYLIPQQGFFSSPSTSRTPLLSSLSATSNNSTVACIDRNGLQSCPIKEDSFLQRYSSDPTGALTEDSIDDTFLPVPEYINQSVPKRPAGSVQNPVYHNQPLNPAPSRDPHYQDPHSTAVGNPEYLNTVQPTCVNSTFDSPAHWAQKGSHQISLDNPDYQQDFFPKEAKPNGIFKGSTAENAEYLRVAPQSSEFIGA
Assay: Assay for modulation of EGFR activity (ELISA)
Format: biochemical
Settings: read-out: bio EGFR IC50
Description: Using the following reagents, supplies, and method, the ability of compounds of the invention to modulate the in vitro activity of EGFR can be readily determined in an ELISA. A431 […] cell lysate is stored at −80° C. ATP/MnCl2 phosphorylation mix is prepared by adding 300 μL of 1.0 mM ATP and […] of 1M MnCl2 to 9.2 mL of dH2O and mixing. Ten mL of phosphorylation mix is enough for about 6 assay plates. […] Read assay on Dynatech MR7000 ELISA reader.
Where a name gives a salt, the structure may show the parent alone.
READOUT KIND: IC50 (nM)
Report the value in nM with no unit label.

Use these answered entries as a reference point.
COMPOUND	MEASUREMENT UNIT	TEST VALUE
Cc1[nH]c(/C=C2\C(=O)Nc3ncnc(Nc4ccc(F)c(Cl)c4)c32)c(C)c1CC(=O)O [Formula 51]	nM	38
Cc1cc(CCC(=O)N2CCN(C)CC2)[nH]c1/C=C1\C(=O)Nc2ncnc(Nc3ccc(F)c(Cl)c3)c21 [Formula 25]	nM	58
C#Cc1cccc(Nc2ncnc3c2C(=Cc2ccc(C(=O)NCCN4CCOCC4)[nH]2)C(=O)N3)c1 [Formula 16, HYDROCHLORIDE]	nM	100

Enquiry: # get_value(readout= IC50, system= EGFR (Homo sapiens, UniProt P00533)) for CC(C)c1cc(CCC(=O)O)c(/C=C2\C(=O)Nc3ncnc(Nc4ccc(F)c(Cl)c4)c32)[nH]1 [Formula 27]
Return: 150

Enquiry: Ok, now Cc1cc(CCC(=O)O)[nH]c1/C=C1\C(=O)Nc2ncnc(Nc3ccc(F)c(Cl)c3)c21 [Formula 49]
Return: 5

Enquiry: Ok, now CN1CCN(C(=O)c2ccc(/C=C3\C(=O)Nc4ncnc(Nc5ccc(F)c(Cl)c5)c43)[nH]2)CC1 [Formula 45]
Return: 50

----------
Target: HER-2 (Homo sapiens)
Construct: P00533 (Epidermal growth factor receptor)
Sequence (P04626 720-987 limits assumed): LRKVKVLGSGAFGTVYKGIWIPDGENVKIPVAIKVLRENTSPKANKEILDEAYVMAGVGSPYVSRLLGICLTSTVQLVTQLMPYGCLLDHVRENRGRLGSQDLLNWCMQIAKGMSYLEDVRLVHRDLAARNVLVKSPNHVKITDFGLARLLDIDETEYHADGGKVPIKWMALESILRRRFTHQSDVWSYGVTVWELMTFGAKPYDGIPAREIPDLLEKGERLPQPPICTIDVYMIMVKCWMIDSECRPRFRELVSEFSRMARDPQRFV
Assay: Assay for modulation of HER-2 activity in whole cells (ELISA)
Details: EGFR/HER-2chimera/#T3-C7 cell lines, EGF stimulated; read-out: HER-2 kinase IC50
Where a name gives a salt, the structure may show the parent alone.
Collected log10(IC50) values appear next to each entry.
# values: log10(IC50), units nM

COMPOUND	log10(IC50)
Cc1cc(C(=O)NCCN2CCOCC2)[nH]c1C=C1C(=O)Nc2nccc(Nc3ccc(F)c(Cl)c3)c21	2.43
Cc1[nH]c(C=C2C(=O)Nc3ncnc(Nc4ccc(F)c(Cl)c4)c32)c(C)c1CCCN1CCOCC1 [Formula 7, HYDROCHLORIDE]	1.60
Cc1cc(C(=O)NCCN2CCOCC2)[nH]c1C=C1C(=O)Nc2ncnc(Nc3ccc4c(ccn4Cc4ccccc4)c3)c21.Cl [Formula 6, HYDROCHLORIDE]	2.11
Cc1cc(C=C2C(=O)Nc3ncnc(Nc4ccc(F)c(Cl)c4)c32)[nH]c1C(=O)N1CCOCC1	3.03
O=C1Nc2ncnc(N3CCCCC3)c2C1=Cc1ccc(C(=O)NCCN2CCOCC2)[nH]1	4.79

Enquiry: Sample C#Cc1cccc(Nc2ncnc3c2C(=Cc2ccc(C(=O)NCCN4CCOCC4)[nH]2)C(=O)N3)c1 [Formula 16, HYDROCHLORIDE] — what was its log10(IC50)?
Return: 3.01

Enquiry: Ok, now Cc1cc(C(=O)NCCN2CCOCC2)[nH]c1C=C1C(=O)Nc2ncnc(Nc3ccc(F)c(Cl)c3)c21 [Formula 4, HYDROCHLORIDE]
Return: 2.20

Enquiry: Ok, now `Cc1cc(CCC(=O)O)[nH]c1/C=C1\C(=O)Nc2ncnc(Nc3ccc(F)c(Cl)c3)c21`
Return: 3.26

Enquiry: Ok, now `CC(C)c1cc(CCC(=O)O)c(/C=C2\C(=O)Nc3ncnc(Nc4ccc(F)c(Cl)c4)c32)[nH]1`
Return: 2.81
